- assayRemarks: Mouse liver microsome (MLM) stability
- Format: in vitro ADME
Provide the reported Mouse liver microsomes, MLM t½ of each item.
The figure you give is taken to be in min; do not add the unit.

Reported Mouse liver microsomes, MLM t½ for `CC(C)COc1cc(CCC(C)(C)N2Cc3cccc(F)c3C2)ccc1O` was 28

Reported Mouse liver microsomes, MLM t½ for `C[C@H](CCc1ccc(F)cc1)N1Cc2cccc(F)c2C1` was 7

Reported Mouse liver microsomes, MLM t½ for `CC(C)Oc1cc(CCC(C)(C)N2Cc3cc4c(cc3C2)OCO4)ccc1O` was 6

Reported Mouse liver microsomes, MLM t½ for `COc1cc(CC[C@@H](C)N2Cc3cc4c(cc3C2)OCO4)ccc1O` was 20

Reported Mouse liver microsomes, MLM t½ for `CC(=O)N1CCN(C(=O)c2cccc3c2CN(C(C)(C)CCc2ccc(O)c(OCC(C)C)c2)C3)CC1` was 7

Reported Mouse liver microsomes, MLM t½ for `COc1cc(CC[C@@H](C)N2Cc3ccc(C(F)(F)F)cc3C2)ccc1O` was 28

Reported Mouse liver microsomes, MLM t½ for `COc1cc(CCC(C)(C)N2Cc3ccc(F)cc3C2)ccc1OCCO` was 96

Reported Mouse liver microsomes, MLM t½ for `COc1cc(CC[C@@H](C)N2Cc3cc4c(cc3C2)OCO4)ccc1OCCO` was 97

Reported Mouse liver microsomes, MLM t½ for `Cc1ccc2c(c1)CN([C@H](C)CCc1ccc(Cl)c(Cl)c1)C2` was 3

Reported Mouse liver microsomes, MLM t½ for `CC(C)Oc1ccc(CCC(C)(C)N2Cc3ccc(F)cc3C2)cc1OC(C)C` was 14

Reported Mouse liver microsomes, MLM t½ for `C[C@H](CCc1ccc(Cl)c(Cl)c1)N1Cc2cccc(Cl)c2C1.Cl` was 12

Reported Mouse liver microsomes, MLM t½ for `COc1cc(CCC(C)(C)N2Cc3cccc(F)c3C2)ccc1OCCO` was 29

Reported Mouse liver microsomes, MLM t½ for `COCCN(C)C(=O)c1cccc2c1CN(C(C)(C)CCc1ccc(O)c(OC)c1)C2` was 19

Reported Mouse liver microsomes, MLM t½ for `COc1ccc2c(c1)CN([C@H](C)CCc1ccc(Cl)c(Cl)c1)C2.Cl` was 15

Reported Mouse liver microsomes, MLM t½ for `CC(C)(C)Oc1cc(CCC(C)(C)N2Cc3cccc(S(C)(=O)=O)c3C2)ccc1O` was 10

Reported Mouse liver microsomes, MLM t½ for `CC(C)Oc1cc(CC[C@@H](C)N2Cc3cccc(F)c3C2)ccc1O` was 4

Reported Mouse liver microsomes, MLM t½ for `CC(C)Oc1cc(CC[C@@H](C)N2Cc3ccc(S(C)(=O)=O)cc3C2)ccc1O` was 75

Reported Mouse liver microsomes, MLM t½ for `COc1cc(CCC(C)(C)N2Cc3cccc(C(=O)N(C)CCN(C)C)c3C2)ccc1O` was 88

Reported Mouse liver microsomes, MLM t½ for `COc1cc(CC[C@@H](C)N2Cc3cccc(S(C)(=O)=O)c3C2)ccc1O` was 41

Reported Mouse liver microsomes, MLM t½ for `COc1cc(CCC(C)(C)N2Cc3cccc(C(=O)N4CCOCC4)c3C2)ccc1O` was 45

Reported Mouse liver microsomes, MLM t½ for `CC(C)Oc1cc(CCC(C)(C)N2Cc3ccc(S(C)(=O)=O)cc3C2)ccc1O` was 79

Reported Mouse liver microsomes, MLM t½ for `COc1cc(CCC(C)(C)N2Cc3cccc(S(C)(=O)=O)c3C2)ccc1O` was 52

Reported Mouse liver microsomes, MLM t½ for `COc1cc2c(cc1OC)CN([C@H](C)CCc1ccc(Cl)c(Cl)c1)C2` was 61

Reported Mouse liver microsomes, MLM t½ for `COc1cc(CC[C@@H](C)N2Cc3cc(Cl)c(Cl)cc3C2)ccc1O` was 21

Reported Mouse liver microsomes, MLM t½ for `COc1cc2c(cc1OC)CN([C@@H](C)CCc1ccc(Cl)c(Cl)c1)C2` was 43

Reported Mouse liver microsomes, MLM t½ for `COc1cc(CC[C@@H](C)N2Cc3cccc(F)c3C2)ccc1O` was 16

Reported Mouse liver microsomes, MLM t½ for C[C@H](CCc1ccc(O)c(OC(C)(C)C)c1)N1Cc2cccc(F)c2C1 [60B] was 8

Reported Mouse liver microsomes, MLM t½ for `CN1CCN(C(=O)c2cccc3c2CN(C(C)(C)CCc2ccc(O)c(OC(F)(F)F)c2)C3)CC1` was 5

Reported Mouse liver microsomes, MLM t½ for `COc1cc(CCC(C)(C)N2Cc3cccc(C(=O)N4CCN(C)CC4)c3C2)ccc1O` was 27

Reported Mouse liver microsomes, MLM t½ for `C[C@H](CCc1ccc(F)cc1)N1Cc2cc3c(cc2C1)OCO3` was 5

Reported Mouse liver microsomes, MLM t½ for `COc1cc(CCC(C)(C)N2Cc3cccc(F)c3C2)ccc1O` was 21

Reported Mouse liver microsomes, MLM t½ for `CC(C)(CCc1ccc(O)c(OC(F)(F)F)c1)N1Cc2cccc(C(=O)N3CCOCC3)c2C1` was 14

Reported Mouse liver microsomes, MLM t½ for `CC(C)Oc1ccc(CC[C@@H](C)N2Cc3cc4c(cc3C2)OCO4)cc1OC(C)C` was 6

Reported Mouse liver microsomes, MLM t½ for `COc1cc(CCC(C)(C)N2Cc3ccc(F)cc3C2)ccc1OC(=O)N(C)C` was 33

Reported Mouse liver microsomes, MLM t½ for `CN(C)C(=O)c1cccc2c1CN(C(C)(C)CCc1ccc(O)c(OC(C)(C)C)c1)C2` was 8

Reported Mouse liver microsomes, MLM t½ for `CC(C)(CCc1ccc(F)cc1)N1Cc2ccc(F)cc2C1` was 9

====

- assayRemarks: Mouse liver microsome (MLM) stability
- Type: in vitro ADME
- Procedure: A first pharmacokinetic study was performed in microsomes of mice mouse liver microsomes, MLM) by a commercial contract research organization. The studies were performed according to Obach, R. S et al. (1997) J. Pharmacol. Exp. Ther., 283: 46-58, which is incorporated herein by reference.
quantityName: Mouse liver microsomes, MLM t½ (min)
The figure you give is taken to be in min; do not add the unit.

Reported Mouse liver microsomes, MLM t½ for CC(C)COc1cc(CCC(C)(C)N2Cc3ccc(S(C)(=O)=O)cc3C2)ccc1O [compound 87] was 86

Reported Mouse liver microsomes, MLM t½ for C[C@H](CCc1ccc(Cl)c(Cl)c1)N1Cc2ccc(F)cc2C1.Cl [compound 12] was 13

Reported Mouse liver microsomes, MLM t½ for C[C@H](CCc1ccc(O)c(OC(F)(F)F)c1)N1Cc2cc3c(cc2C1)OCO3 [compound 24] was 5

Reported Mouse liver microsomes, MLM t½ for C[C@H](CCc1ccc(Cl)c(Cl)c1)N1Cc2cc3c(cc2C1)OCO3 [compound 10] was 8

Reported Mouse liver microsomes, MLM t½ for C[C@H](CCc1ccc(Cl)c(Cl)c1)N1Cc2cc(Cl)c(Cl)cc2C1 [compound 5] was 53

Reported Mouse liver microsomes, MLM t½ for COc1cc(CCC(C)(C)N2Cc3cccc(C(=O)NCCN(C)C)c3C2)ccc1O [compound 78] was 450

Reported Mouse liver microsomes, MLM t½ for CN(C)C(=O)c1cccc2c1CN(C(C)(C)CCc1ccc(O)c(OC(F)(F)F)c1)C2 [compound 57] was 26

Reported Mouse liver microsomes, MLM t½ for CC(C)Oc1cc(CC[C@@H](C)N2Cc3ccc(F)cc3C2)ccc1O [compound 37] was 5

Reported Mouse liver microsomes, MLM t½ for C[C@H](CCc1ccc(O)c(OC(F)(F)F)c1)N1Cc2ccc(F)cc2C1 [compound 31] was 6

Reported Mouse liver microsomes, MLM t½ for COc1cc(CC[C@@H](C)N2Cc3cccc(F)c3C2)ccc1OCCO [compound 51] was 66

Reported Mouse liver microsomes, MLM t½ for C[C@H](CCc1ccc(F)cc1)N1Cc2ccc(F)cc2C1 [compound 22] was 7

Reported Mouse liver microsomes, MLM t½ for CC(C)COc1cc(CCC(C)(C)N2Cc3cccc(C(=O)N(C)C)c3C2)ccc1O [compound 89] was 17

Reported Mouse liver microsomes, MLM t½ for C[C@H](CCc1ccc(OC(=O)N(C)C)c(OC(F)(F)F)c1)N1Cc2ccc(F)cc2C1 [compound 43] was 5

Reported Mouse liver microsomes, MLM t½ for COc1cc2c(cc1OC)CN(C(C)(C)CCc1ccc(F)cc1)C2 [compound 34] was 46

Reported Mouse liver microsomes, MLM t½ for CC(C)(CCc1ccc(O)c(OC(F)(F)F)c1)N1Cc2cccc(S(C)(=O)=O)c2C1 [compound 67] was 39

Reported Mouse liver microsomes, MLM t½ for COc1cc(CCC(C)(C)N2Cc3cc4c(cc3C2)OCO4)ccc1OCCO [compound 47] was 91

Reported Mouse liver microsomes, MLM t½ for CC(C)(CCc1ccc(O)c(OC(F)(F)F)c1)N1Cc2cccc(F)c2C1 [compound 54] was 12

Reported Mouse liver microsomes, MLM t½ for CC(C)(CCc1ccc(O)c(OC(F)(F)F)c1)N1Cc2c(F)ccc(F)c2C1 [compound 55] was 34

Reported Mouse liver microsomes, MLM t½ for COC[C@H](CCc1ccc(Cl)c(Cl)c1)N1Cc2ccc(F)cc2C1 [compound 46] was 5

Reported Mouse liver microsomes, MLM t½ for CC(C)Oc1cc(CC[C@@H](C)N2Cc3cc4c(cc3C2)OCO4)ccc1O [compound 25] was 4

Reported Mouse liver microsomes, MLM t½ for CC(C)COc1cc(CCC(C)(C)N2Cc3cccc(C(=O)N4CCN(C)CC4)c3C2)ccc1O [compound 91] was 6

Reported Mouse liver microsomes, MLM t½ for CC(C)Oc1cc(CCC(C)(C)N2Cc3cccc(F)c3C2)ccc1O [compound 28] was 4

Reported Mouse liver microsomes, MLM t½ for C[C@H](CCc1ccc(Cl)c(Cl)c1)N1Cc2ccc3ccccc3c2C1 [compound 19] was 25

Reported Mouse liver microsomes, MLM t½ for COc1cc(CC[C@@H](C)N2Cc3ccc(Cl)cc3C2)ccc1O [compound 1] was 11

Reported Mouse liver microsomes, MLM t½ for CC(C)(CCc1ccc(F)cc1)N1Cc2cccc(F)c2C1 [compound 33] was 9

Reported Mouse liver microsomes, MLM t½ for CC(C)(C)Oc1cc(CCC(C)(C)N2Cc3c(F)ccc(F)c3C2)ccc1O [compound 74] was 21

Reported Mouse liver microsomes, MLM t½ for C[C@H](CCc1ccc(Cl)c(Cl)c1)N1Cc2ccc(C(F)(F)F)cc2C1 [compound 4] was 40

Reported Mouse liver microsomes, MLM t½ for CC(C)COc1cc(CCC(C)(C)N2Cc3cccc(C(=O)N4CCOCC4)c3C2)ccc1O [compound 90] was 9

Reported Mouse liver microsomes, MLM t½ for C[C@H](CCc1ccc(O)c(OC(C)(C)C)c1)N1Cc2c(F)ccc(F)c2C1 [60A] was 5

Reported Mouse liver microsomes, MLM t½ for COc1cc(CCC(C)N2Cc3ccc4ccccc4c3C2)ccc1O.Cl (centres unmarked) [compound 17] was 10

Reported Mouse liver microsomes, MLM t½ for C[C@H](CCc1ccc(O)c(OC(C)(C)C)c1)N1Cc2ccc(S(C)(=O)=O)cc2C1 [compound 63] was 31

Reported Mouse liver microsomes, MLM t½ for CC(C)(C)Oc1cc(CCC(C)(C)N2Cc3ccc(S(C)(=O)=O)cc3C2)ccc1O [compound 62] was 45

Reported Mouse liver microsomes, MLM t½ for C[C@H](CCc1ccc(OC(=O)N(C)C)c(OC(F)(F)F)c1)N1Cc2cccc(F)c2C1 [compound 41] was 9

Reported Mouse liver microsomes, MLM t½ for C[C@H](CCc1ccc(Cl)c(Cl)c1)N1Cc2cccc(F)c2C1 [compound 9] was 12

Reported Mouse liver microsomes, MLM t½ for CC(C)(CCc1ccc(F)cc1)N1Cc2cc3c(cc2C1)OCO3 [compound 36] was 47
